Listed next: entries and their corresponding log10 IC50.
System: aggregation of the washed rabbit platelet by thrombin
EXPERIMENTAL_DETAILS: Platelet aggregation inhibiting activity (washed rabbit platelet, thrombin)
Format: cell-based
CONDITION_PARAMETERS: Oryctolagus cuniculus, Platelet; washed rabbit platelets, thrombin 0.2 unit/ml, 37° C., Table 3; read-out: IC50 (50% inhibition concentration in M)
Values below are the log10 of the recorded IC50, with µM as the unit.

COMPOUND	OBS_VALUE
COc1ccc(COc2ccc(S(=O)(=O)N(CC(=O)O)Cc3ccc(OC)cc3)c3cc(C(C)=O)oc23)cc1 [Compound 33]	1.30
CC(=O)c1cc2c(S(=O)(=O)NCC(=O)O)ccc(OCc3ccc(Cl)cc3)c2o1 [Compound 30]	1.48
CCCCCCCOc1ccc(S(=O)(=O)NCC(=O)O)c2cc(C(C)=O)oc12 [Compound 7]	2.18

Request: Quick one: log10 IC50 of CCCCOc1ccc(S(=O)(=O)N(C)CC(=O)O)c2cc(C(C)=O)oc12 [Compound 9] ?
Result: 2.78

Request: Okay, and CC(=O)c1cc2c(S(=O)(=O)NCC(=O)O)ccc(OCc3ccccc3)c2o1 [Compound 29] ?
Result: 1.54

Request: Okay, and CC(=O)c1cc2c(S(=O)(=O)NCC(=O)O)ccc(OCC(=O)O)c2o1 [Compound 8] ?
Result: 2.11

Request: Okay, and CC(=O)c1cc2c(S(=O)(=O)NCC(=O)O)ccc(OCc3ccc([N+](=O)[O-])cc3)c2o1 [Compound 23] ?
Result: 1.90

* * *

EXPERIMENTAL_DETAILS: Acute toxicity test in mice (oral)
CONDITION_PARAMETERS: mouse, in vivo, po
MEASURED_PARAMETER: LD50 at 336 h

GIVEN_SMILES	LD50 at 336 h
CCCCOc1ccc(S(=O)(=O)N(C)CC(=O)O)c2cc(C(C)=O)oc12	> 3000 mg/kg
CC(=O)c1cc2c(S(=O)(=O)NCC(=O)O)ccc(OCc3ccccc3)c2o1	> 2000 mg/kg
CCCOc1ccc(S(=O)(=O)NCC(=O)O)c2cc(C(C)=O)oc12	> 3000 mg/kg

From here, focus on the item given below.
Request: Quick one: LD50 at 336 h of "CC(=O)c1cc2c(S(=O)(=O)N(CC(=O)O)Cc3ccc(Cl)cc3)ccc(OCc3ccc(Cl)cc3)c2o1" ?
Result: > 2000 mg/kg

* * *

Each entry below carries its measured pIC50, system: aldose reductase from rat lens (Rattus norvegicus, UniProt P07943).
Scale for pIC50: -log10 of concentration given in mol/L; no unit attached.

MOLECULE	pIC50
CC(=O)c1cc2c(S(=O)(=O)NCC(=O)O)ccc(OCc3ccc([N+](=O)[O-])cc3)c2o1	7.30
CCCCOc1ccc(S(=O)(=O)NCC(=O)O)c2cc(C(C)=O)oc12	7.40
CC(=O)COc1ccc(S(=O)(=O)NCC(=O)O)c2cc(C(C)=O)oc12	6.70

Request: Quick one: pIC50 of CC(=O)c1cc2c(S(=O)(=O)NCC(=O)O)ccc(OCC(C)Cl)c2o1 (stereo not shown) ?
Result: 6.70

* * *

TARGET_OR_TEST_SYSTEM: aldose reductase from rat lens (Rattus norvegicus)
MEASURED_PARAMETER: IC50 (nM)
Numbers only here, please. The scale is nM.

Sample answers from the record:
COMPOUND	TARGET_OR_TEST_SYSTEM	IC50 (nM)
O=C(O)CNS(=O)(=O)c1ccc(OCC(=O)O)c2oc(C(=O)O)cc12 [Compound 12]	aldose reductase from rat lens (Rattus norvegicus)	200
CCCCOc1ccc(S(=O)(=O)N(C)CC(=O)O)c2cc(C(C)=O)oc12 [Compound 9]	aldose reductase from rat lens (Rattus norvegicus)	1000

Request: Quick one: IC50 of COc1ccc(S(=O)(=O)NCC(=O)O)c2cc(C(=O)O)oc12 [Compound 13] ?
Result: 100

Request: Okay, and COc1ccc(S(=O)(=O)NCC(=O)O)c2oc(C(C)=O)cc12 [Compound 18] ?
Result: 5000

Request: Okay, and COc1c(S(=O)(=O)NCC(=O)O)cc(S(=O)(=O)NCC(=O)O)c2cc(C3(C)NC(=O)NC3=O)oc12 (stereo not drawn) [Compound 20] ?
Result: 300

Request: Okay, and CCc1oc2ccc(NC(C)=O)cc2c1S(=O)(=O)NCC(=O)O [Compound 22] ?
Result: 50

Request: Okay, and CCCOc1ccc(S(=O)(=O)NCC(=O)O)c2cc(C(C)=O)oc12 [Compound 3] ?
Result: 60

Request: Okay, and CCOc1ccc(S(=O)(=O)NCC(=O)O)c2cc(C(C)=O)oc12 [Compound 2] ?
Result: 100

Request: Okay, and CC(=O)c1cc2c(S(=O)(=O)N(CC(=O)O)Cc3ccc(Cl)cc3)ccc(OCc3ccc(Cl)cc3)c2o1 [Compound 34] ?
Result: 800

Request: Okay, and CC(=O)c1cc2c(S(=O)(=O)N(CC(=O)O)Cc3ccccc3)ccc(OCc3ccccc3)c2o1 [Compound 35] ?
Result: 700

Request: Okay, and CCCCCCOc1ccc(S(=O)(=O)NCC(=O)O)c2cc(C(C)=O)oc12 [Compound 6] ?
Result: 50

Request: Okay, and CCCCOc1ccc(S(=O)(=O)NC(C)C(=O)O)c2cc(C(C)=O)oc12 (stereo not drawn) [Compound 11] ?
Result: 5000
